- target or test system: CDK6/cyclin D3 (Homo sapiens) (UniProt P30281+Q00534)
- assay conditions: at 1 µM
- Description: Millipore: Percentage of residual kinase activity of CDK6 at 1uM relative to control. Control inhibitor: Phosphoric acid* at 0.3uM. Buffer: 8 mM MOPS pH 7.0, 0.2 mM EDTA
measure name: residual activity (%)
Value expressed in %; do not type the unit.

# annotated cases, reported residual activity shown
smiles_text=O=C(Nc1nc2ccccc2n1CCN1CCOCC1)c1cccc([N+](=O)[O-])c1 value_observed=88
smiles_text=Nc1ncnc2c1c(-c1ccc(Oc3ccccc3)cc1)cn2C1CCCC1 value_observed=85
smiles_text=COc1ccc(-c2cnc3c(-c4ccsc4)cnn3c2)cc1 value_observed=85
smiles_text=CC(C)c1nn(-c2c(Cl)cccc2Cl)c2nc(Cc3ccc(OCCO)cc3)[nH]c(=O)c12 value_observed=43
smiles_text=O=C(Nc1ccc(Cl)cc1)c1ccccc1NCc1ccncc1 value_observed=102

Req: Dear colleague, I am looking for the recorded residual activity of the following compound: Oc1cccc(-c2nc(N3CCOCC3)c3oc4ncccc4c3n2)c1
Resp: 91

Req: Dear colleague, I am looking for the recorded residual activity of the following compound: CCN(CC)CCNC(=O)c1c(C)[nH]c(/C=C2\C(=O)Nc3ccc(Cl)cc32)c1C
Resp: 70

Req: Dear colleague, I am looking for the recorded residual activity of the following compound: O=C(c1cc2cc(O)ccc2[nH]1)c1cc2cc(O)ccc2[nH]1
Resp: 38

###

Listed compounds paired with reported residual activity
- target or test system: Tyrosine-protein kinase Mer (Homo sapiens) (UniProt Q12866)
- Sequence (whole entry): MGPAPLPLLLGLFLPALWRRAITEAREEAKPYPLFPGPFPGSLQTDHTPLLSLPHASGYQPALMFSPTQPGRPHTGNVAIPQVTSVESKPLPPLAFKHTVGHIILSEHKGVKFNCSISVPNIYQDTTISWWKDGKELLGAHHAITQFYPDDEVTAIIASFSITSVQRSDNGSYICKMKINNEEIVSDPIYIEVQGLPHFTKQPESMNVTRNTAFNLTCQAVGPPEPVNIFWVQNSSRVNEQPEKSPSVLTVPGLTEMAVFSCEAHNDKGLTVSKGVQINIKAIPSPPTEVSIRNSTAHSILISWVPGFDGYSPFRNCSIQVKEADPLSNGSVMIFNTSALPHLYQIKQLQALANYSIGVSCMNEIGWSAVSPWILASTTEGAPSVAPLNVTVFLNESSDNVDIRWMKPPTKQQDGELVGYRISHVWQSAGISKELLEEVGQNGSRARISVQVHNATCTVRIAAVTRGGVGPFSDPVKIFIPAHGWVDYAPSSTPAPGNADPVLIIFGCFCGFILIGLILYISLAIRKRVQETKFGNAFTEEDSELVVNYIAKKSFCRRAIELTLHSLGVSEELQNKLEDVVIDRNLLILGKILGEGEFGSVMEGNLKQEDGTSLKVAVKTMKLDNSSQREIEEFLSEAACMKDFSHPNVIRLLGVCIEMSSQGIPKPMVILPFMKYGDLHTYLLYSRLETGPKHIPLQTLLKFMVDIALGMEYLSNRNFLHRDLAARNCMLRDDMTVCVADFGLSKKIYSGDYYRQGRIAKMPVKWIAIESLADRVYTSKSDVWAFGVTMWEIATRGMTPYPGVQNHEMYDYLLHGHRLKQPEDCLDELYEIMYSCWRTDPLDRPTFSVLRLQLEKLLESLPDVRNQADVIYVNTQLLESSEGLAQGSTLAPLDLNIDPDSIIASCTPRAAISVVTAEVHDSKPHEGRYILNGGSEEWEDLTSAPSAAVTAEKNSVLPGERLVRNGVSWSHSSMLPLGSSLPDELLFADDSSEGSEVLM
- assay conditions: at 1 µM
Value expressed in %; do not type the unit.

# annotated cases, reported residual activity shown
smiles_text=O=C1C(Cl)=C(N2C(=O)CCC2=O)C(=O)c2ccccc21 target_or_test_system="Tyrosine-protein kinase Mer (Homo sapiens) (UniProt Q12866)" value_observed=90
smiles_text=CN(C)S(=O)(=O)c1ccc2c(c1)/C(=C/c1cc3c([nH]1)CCCC3)C(=O)N2 target_or_test_system="Tyrosine-protein kinase Mer (Homo sapiens) (UniProt Q12866)" value_observed=12
smiles_text=Nc1ncnc2[nH]nc(Nc3ccc(F)cc3)c12 target_or_test_system="Tyrosine-protein kinase Mer (Homo sapiens) (UniProt Q12866)" value_observed=91

From here, focus on the item given below.
Req: Could you share what residual activity was measured for COc1ccc2c(c1)c(C1=C(c3c[nH]c4ccccc34)C(=O)NC1=O)cn2CCCN(C)C , tested on Tyrosine-protein kinase Mer (Homo sapiens) (UniProt Q12866)?
Resp: 81

###

- target or test system: Serine/threonine-protein kinase haspin (Homo sapiens) (UniProt Q8TF76)
- Sequence (Q8TF76 whole entry): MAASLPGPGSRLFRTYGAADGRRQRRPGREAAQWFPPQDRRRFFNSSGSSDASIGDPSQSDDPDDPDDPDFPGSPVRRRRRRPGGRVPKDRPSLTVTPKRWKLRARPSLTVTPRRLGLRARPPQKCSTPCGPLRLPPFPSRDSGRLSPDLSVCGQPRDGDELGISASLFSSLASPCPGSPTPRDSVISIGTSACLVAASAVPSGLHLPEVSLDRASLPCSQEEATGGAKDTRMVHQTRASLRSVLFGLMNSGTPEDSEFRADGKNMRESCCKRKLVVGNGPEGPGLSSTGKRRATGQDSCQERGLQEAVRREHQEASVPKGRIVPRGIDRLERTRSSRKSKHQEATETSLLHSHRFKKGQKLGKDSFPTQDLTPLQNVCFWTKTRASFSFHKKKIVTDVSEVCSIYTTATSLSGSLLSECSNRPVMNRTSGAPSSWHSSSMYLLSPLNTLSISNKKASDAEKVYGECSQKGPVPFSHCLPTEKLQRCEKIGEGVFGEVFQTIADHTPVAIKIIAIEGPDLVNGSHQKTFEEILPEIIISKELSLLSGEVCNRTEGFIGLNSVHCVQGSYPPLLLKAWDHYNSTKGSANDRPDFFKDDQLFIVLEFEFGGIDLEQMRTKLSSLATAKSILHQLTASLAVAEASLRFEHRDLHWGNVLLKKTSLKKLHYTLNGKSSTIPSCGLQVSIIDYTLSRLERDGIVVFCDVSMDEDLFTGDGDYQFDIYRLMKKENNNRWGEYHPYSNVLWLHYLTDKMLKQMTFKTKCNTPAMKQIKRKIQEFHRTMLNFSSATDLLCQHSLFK
- assay conditions: at 1 µM
measure name: residual activity (%)
Value expressed in %; do not type the unit.

smiles_text=CCN1/C(=C/C(C)=O)Sc2ccc(OC)cc21 measure_name="residual activity" value_observed=17
smiles_text=O=c1cc(N2CCNCC2)oc2c(-c3ccccc3)cccc12 measure_name="residual activity" value_observed=83
smiles_text=O=C1C(Cl)=C(N2C(=O)CCC2=O)C(=O)c2ccccc21 measure_name="residual activity" value_observed=96
smiles_text=CC(C)N(CCC(=O)c1ccc2ccccc2c1)Cc1ccccc1 measure_name="residual activity" value_observed=81
smiles_text=O=C1NC(=O)C(c2cn(CCCO)c3ncccc23)=C1c1cnccn1 measure_name="residual activity" value_observed=69
smiles_text=COc1ccc2c(c1)c(C1=C(c3c[nH]c4ccccc34)C(=O)NC1=O)cn2CCCN(C)C measure_name="residual activity" value_observed=98

Req: Dear colleague, I am looking for the recorded residual activity of the following compound: O=C(c1ccccc1)c1ccc(N2CCOCC2)cc1O
Resp: 98

Req: Dear colleague, I am looking for the recorded residual activity of the following compound: CCCCc1c(-c2ccc(O)cc2)[nH]c2nccnc12
Resp: 34

Req: Dear colleague, I am looking for the recorded residual activity of the following compound: Nc1ncnc2c1c(-c1ccc(Oc3ccccc3)cc1)cn2C1CCCC1
Resp: 90

Req: Dear colleague, I am looking for the recorded residual activity of the following compound: O=S(=O)(c1cccc2cnccc12)N1CCCNCC1
Resp: 60

Req: Dear colleague, I am looking for the recorded residual activity of the following compound: CC(C)(C)c1nc2c3ccc(F)cc3c3c(=O)[nH]ccc3c2[nH]1
Resp: 74

Req: Dear colleague, I am looking for the recorded residual activity of the following compound: O=C(c1cc2cc(O)ccc2[nH]1)c1cc2cc(O)ccc2[nH]1
Resp: 39

Req: Dear colleague, I am looking for the recorded residual activity of the following compound: N#C/C(=C1/Nc2ccccc2S1)c1ccnc(NCCc2cccnc2)n1
Resp: 36

Req: Dear colleague, I am looking for the recorded residual activity of the following compound: Cn1sc(=O)n(Cc2ccccc2)c1=O
Resp: 77

Req: Dear colleague, I am looking for the recorded residual activity of the following compound: Cn1c2ccccc2c2c3c(c4c5ccccc5n(CCC#N)c4c21)CNC3=O
Resp: 11

Req: Dear colleague, I am looking for the recorded residual activity of the following compound: O=C1Nc2ccc(Cl)cc2/C1=C/c1cc(Cl)c(O)c(Cl)c1
Resp: 12

Req: Dear colleague, I am looking for the recorded residual activity of the following compound: O=C1NC(=O)c2c1c1c3ccccc3[nH]c1n1cncc21
Resp: 8

Req: Dear colleague, I am looking for the recorded residual activity of the following compound: CC(C)c1nn(-c2c(Cl)cccc2Cl)c2nc(Cc3ccc(OCCO)cc3)[nH]c(=O)c12
Resp: 97

###

- target or test system: Serine/threonine-protein kinase MRCK beta (Homo sapiens) (UniProt Q9Y5S2)
- Sequence (Q9Y5S2 whole entry): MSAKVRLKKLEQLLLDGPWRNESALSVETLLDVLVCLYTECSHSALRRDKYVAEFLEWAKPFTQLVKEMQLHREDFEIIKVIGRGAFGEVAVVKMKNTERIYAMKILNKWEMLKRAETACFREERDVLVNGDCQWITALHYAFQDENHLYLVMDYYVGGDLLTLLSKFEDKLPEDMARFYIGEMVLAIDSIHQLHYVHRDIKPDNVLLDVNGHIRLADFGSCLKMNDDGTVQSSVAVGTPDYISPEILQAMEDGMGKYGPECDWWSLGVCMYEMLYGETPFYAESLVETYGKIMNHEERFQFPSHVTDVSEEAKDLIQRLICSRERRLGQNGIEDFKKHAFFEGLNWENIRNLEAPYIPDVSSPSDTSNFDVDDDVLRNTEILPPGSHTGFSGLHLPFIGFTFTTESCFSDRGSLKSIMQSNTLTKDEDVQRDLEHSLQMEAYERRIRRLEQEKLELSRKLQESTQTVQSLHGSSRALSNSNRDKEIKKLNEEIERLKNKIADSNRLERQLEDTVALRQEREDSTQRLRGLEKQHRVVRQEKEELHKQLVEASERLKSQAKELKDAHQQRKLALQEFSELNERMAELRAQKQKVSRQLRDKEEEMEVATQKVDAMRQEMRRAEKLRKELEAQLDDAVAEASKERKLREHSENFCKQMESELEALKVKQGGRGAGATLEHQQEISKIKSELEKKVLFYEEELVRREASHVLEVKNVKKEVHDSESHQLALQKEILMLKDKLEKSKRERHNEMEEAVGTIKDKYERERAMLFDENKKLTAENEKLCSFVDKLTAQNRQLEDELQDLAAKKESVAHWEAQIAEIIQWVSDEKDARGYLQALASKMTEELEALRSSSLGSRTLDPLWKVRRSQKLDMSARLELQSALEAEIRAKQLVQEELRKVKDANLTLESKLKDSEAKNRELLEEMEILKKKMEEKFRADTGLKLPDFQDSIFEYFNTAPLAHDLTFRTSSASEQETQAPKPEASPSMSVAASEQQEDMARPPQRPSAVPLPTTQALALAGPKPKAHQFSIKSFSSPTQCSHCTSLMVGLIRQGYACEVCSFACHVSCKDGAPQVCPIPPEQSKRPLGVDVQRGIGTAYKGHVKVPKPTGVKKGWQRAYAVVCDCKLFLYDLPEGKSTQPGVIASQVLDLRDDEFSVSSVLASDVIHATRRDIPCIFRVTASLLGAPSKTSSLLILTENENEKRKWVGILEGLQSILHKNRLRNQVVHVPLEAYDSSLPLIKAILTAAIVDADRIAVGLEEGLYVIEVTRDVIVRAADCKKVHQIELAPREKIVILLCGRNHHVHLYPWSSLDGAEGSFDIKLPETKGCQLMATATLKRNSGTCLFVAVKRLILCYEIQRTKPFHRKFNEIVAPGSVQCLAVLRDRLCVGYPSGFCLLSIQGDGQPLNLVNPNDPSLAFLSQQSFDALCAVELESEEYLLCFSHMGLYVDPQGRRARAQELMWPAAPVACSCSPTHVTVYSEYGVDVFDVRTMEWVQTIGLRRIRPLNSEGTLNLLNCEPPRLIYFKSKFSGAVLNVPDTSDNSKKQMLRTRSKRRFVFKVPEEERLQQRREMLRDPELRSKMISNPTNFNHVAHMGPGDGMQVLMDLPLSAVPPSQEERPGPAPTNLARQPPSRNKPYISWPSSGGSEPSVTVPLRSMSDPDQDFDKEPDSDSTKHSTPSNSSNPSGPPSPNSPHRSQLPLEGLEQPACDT
- assay conditions: at 1 µM
measure name: residual activity (%)
Value expressed in %; do not type the unit.

molecule=O=C(CCCc1ccc(-c2ccccc2F)cc1)Nc1ccc(O)cc1 unit_abbreviation=% value_observed=108
molecule=COc1cc2nccc(Oc3ccc(NC(=S)NC(=O)c4ccccc4C)cc3)c2cc1OC unit_abbreviation=% value_observed=84
molecule=O=c1cc(N2CCOCC2)oc2c1ccc1ccccc12 unit_abbreviation=% value_observed=95
molecule=Nc1ncnc2c1cnn2-c1ccccc1 unit_abbreviation=% value_observed=95

Req: Dear colleague, I am looking for the recorded residual activity of the following molecule: O=C(O)/C=C/c1cc(Br)c(Br)c(Br)c1Br
Resp: 106

Req: Dear colleague, I am looking for the recorded residual activity of the following molecule: Nc1ncnc2c1c(-c1ccc(Oc3ccccc3)cc1)cn2C1CCCC1
Resp: 90

Req: Dear colleague, I am looking for the recorded residual activity of the following molecule: O=C(c1ccccc1)c1ccc(N2CCOCC2)cc1O
Resp: 91

Req: Dear colleague, I am looking for the recorded residual activity of the following molecule: O=C1C(Cl)=C(N2C(=O)CCC2=O)C(=O)c2ccccc21
Resp: 100

Req: Dear colleague, I am looking for the recorded residual activity of the following molecule: Nc1ncnc2[nH]nc(Nc3ccc(F)cc3)c12
Resp: 95

Req: Dear colleague, I am looking for the recorded residual activity of the following molecule: c1ccc(-c2cnc(Nc3ccc(OCCN4CCCC4)cc3)s2)cc1
Resp: 106

Req: Dear colleague, I am looking for the recorded residual activity of the following molecule: O=C1Nc2ccc(Cl)cc2/C1=C/c1cc(Cl)c(O)c(Cl)c1
Resp: 80

Req: Dear colleague, I am looking for the recorded residual activity of the following molecule: O=C1Cc2c([nH]c3ccc(Br)cc23)-c2ccccc2N1
Resp: 72

Req: Dear colleague, I am looking for the recorded residual activity of the following molecule: CC(C)(C)n1nc(Cc2cccc3ccccc23)c2c(N)ncnc21
Resp: 99

Req: Dear colleague, I am looking for the recorded residual activity of the following molecule: O=C(Nc1nc2ccccc2n1CCN1CCOCC1)c1cccc([N+](=O)[O-])c1
Resp: 88

Req: Dear colleague, I am looking for the recorded residual activity of the following molecule: O=C(NC(NC(=S)Nc1ccc(F)c([N+](=O)[O-])c1)C(Cl)(Cl)Cl)C(c1ccccc1)c1ccccc1 (stereo not drawn)
Resp: 97

Req: Dear colleague, I am looking for the recorded residual activity of the following molecule: Oc1cccc(-c2nc(N3CCOCC3)c3oc4ncccc4c3n2)c1
Resp: 91

Req: Dear colleague, I am looking for the recorded residual activity of the following molecule: N#Cc1c(NC(=O)c2cccc3ccccc23)sc2c1CCCC2
Resp: 100

Req: Dear colleague, I am looking for the recorded residual activity of the following molecule: N#C/C(=C\c1ccc(O)c(O)c1)C(=O)NCc1ccccc1
Resp: 87

Req: Dear colleague, I am looking for the recorded residual activity of the following molecule: CC(C)[C@H](CO)Nc1nc(Nc2cc(N)cc(Cl)c2)c2ncn(C(C)C)c2n1
Resp: 100
